Recorded values, source patent US10450316B2.

experimental_system: CDK4/cyclin D1 (Homo sapiens, UniProt P11802)
Sequence (P11802 whole entry): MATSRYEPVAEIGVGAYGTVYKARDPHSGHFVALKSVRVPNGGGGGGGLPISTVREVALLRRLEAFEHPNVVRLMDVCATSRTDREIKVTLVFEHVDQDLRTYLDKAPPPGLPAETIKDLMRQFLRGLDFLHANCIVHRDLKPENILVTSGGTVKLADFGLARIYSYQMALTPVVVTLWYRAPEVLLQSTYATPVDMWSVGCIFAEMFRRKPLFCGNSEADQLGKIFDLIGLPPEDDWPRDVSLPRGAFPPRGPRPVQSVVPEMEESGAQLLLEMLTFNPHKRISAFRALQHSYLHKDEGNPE
Sequence (P24385 whole entry partner): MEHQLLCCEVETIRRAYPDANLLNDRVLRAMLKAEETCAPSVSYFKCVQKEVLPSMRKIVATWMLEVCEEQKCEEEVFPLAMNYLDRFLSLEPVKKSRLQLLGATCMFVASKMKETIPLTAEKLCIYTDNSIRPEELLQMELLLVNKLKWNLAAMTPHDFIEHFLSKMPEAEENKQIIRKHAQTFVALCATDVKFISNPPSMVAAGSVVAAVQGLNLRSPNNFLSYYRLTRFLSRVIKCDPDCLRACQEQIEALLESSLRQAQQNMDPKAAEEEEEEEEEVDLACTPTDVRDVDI
protocol_description: CDK kinase inhibition assay (33P-ATP HotSpot filter binding)
measurement_context: substrate RB Protein, 10 μM ATP
Procedure: Testing compounds were dissolved in 100% DMSO to specific concentration. Compounds were tested in 10-dose mode with 3-fold serial dilution starting at 100 μM. The serial dilution was conducted by epMotion 5070 in DMSO. Each substrate was prepared in freshly prepared Reaction Buffer (20 mM Hepes (pH 7.5), 10 mM MgCl2, 1 mM EGTA, 0.02% Brij35, 0.02 mg/ml BSA, 0.1 mM Na3VO4, 2 mM DTT, 1% DMSO). Each kinase was delivered into the substrate solution and the solution was gently mixed. […]
Could you please report measured IC50 for the items listed next?

CCN1CCN(Cc2ccc(Nc3ncc(F)c(-c4cc(F)c5nc6n(c5c4)[C@H](C(F)F)CC6)n3)nc2)CC1 [Example 12] ... < 5 nM

Proceeding to the next compound to report its IC50.
Query string: Looking for the measured IC50 of CN1CCN(c2ccc(Nc3ncc(F)c(-c4cc(F)c5nc6n(c5c4)[C@H](C(F)F)CC6)n3)nc2)CC1 [Example 39] , can you help?
Result string: < 5 nM

---

Please provide measured IC50 for the entries that follow.
experimental_system: CDK1/cyclin B (Homo sapiens, UniProt P06493)
Sequence (P06493 whole entry): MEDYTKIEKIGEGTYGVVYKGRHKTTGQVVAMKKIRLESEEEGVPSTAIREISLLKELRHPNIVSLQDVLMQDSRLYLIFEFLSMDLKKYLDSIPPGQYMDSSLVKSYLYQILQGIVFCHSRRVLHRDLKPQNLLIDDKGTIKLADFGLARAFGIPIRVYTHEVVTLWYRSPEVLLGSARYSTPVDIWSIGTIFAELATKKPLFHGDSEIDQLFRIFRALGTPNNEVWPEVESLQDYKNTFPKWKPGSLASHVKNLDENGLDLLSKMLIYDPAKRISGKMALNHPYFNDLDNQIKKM
Sequence (P14635 whole entry partner): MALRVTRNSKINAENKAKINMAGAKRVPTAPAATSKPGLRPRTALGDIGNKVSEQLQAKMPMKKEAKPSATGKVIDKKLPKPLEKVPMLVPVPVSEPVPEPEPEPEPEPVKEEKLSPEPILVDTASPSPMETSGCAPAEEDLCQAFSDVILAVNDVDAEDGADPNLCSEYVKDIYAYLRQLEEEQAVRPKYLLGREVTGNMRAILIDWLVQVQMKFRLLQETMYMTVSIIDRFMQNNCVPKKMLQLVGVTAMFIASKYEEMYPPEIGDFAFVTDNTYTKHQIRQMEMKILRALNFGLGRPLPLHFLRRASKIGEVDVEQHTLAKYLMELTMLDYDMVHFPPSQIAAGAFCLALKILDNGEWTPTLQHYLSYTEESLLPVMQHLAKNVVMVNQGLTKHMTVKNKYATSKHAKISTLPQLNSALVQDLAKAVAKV
protocol_description: CDK kinase inhibition assay (33P-ATP HotSpot filter binding)
measurement_context: substrate Histone H1, 10 μM ATP
Numbers only, in nM.

CCN1CCN(Cc2ccc(Nc3ncc(F)c(-c4cc(F)c5nc6n(c5c4)[C@H](C(F)F)CC6)n3)nc2)CC1 ... 403

For the next question, use this molecule.
Query string: Sample CN1CCN(c2ccc(Nc3ncc(F)c(-c4cc(F)c5nc6n(c5c4)[C@H](C(F)F)CC6)n3)nc2)CC1 — what was its IC50?
Result string: 50.5
